log10(Kd) values for Carbonic anhydrase 2 (Homo sapiens, UniProt P00918) compiled from several publications are listed below.
Hi team, quick reminder: these entries are log10 of Kd (µM).

The examples below pair each entry with its known result.
>>> recorded_number("NC(=O)NCCOCCOCCNC(=O)c1ccc(S(N)(=O)=O)cc1")
-1.37
>>> recorded_number("CN(C)c1ccc(CNC(=O)c2ccc(S(N)(=O)=O)cc2)cc1")
-2.85
>>> recorded_number("NS(=O)(=O)c1ccc(C(=O)N[C@@H](Cc2ccccc2)C(=O)NCC(=O)NCC(=O)O)cc1")
-1.68
>>> recorded_number("NS(=O)(=O)c1ccc(C(=O)NCc2ccc([N+](=O)[O-])cc2)cc1")
-2.70

Kindly give each listed record's log10(Kd).
1. CNC(=O)c1ccc(S(N)(=O)=O)cc1
2. NCCCCC(N)C(=O)[C@@H](N)C(=O)NCCOCCOCCNC(=O)c1ccc(S(N)(=O)=O)cc1 (stereo not given in full)
3. NC(CO)C(=O)[C@@H](N)C(=O)NCCOCCOCCNC(=O)c1ccc(S(N)(=O)=O)cc1 (stereo not given in full)

Reply:
[-0.82, -1.30, -1.39]

###

Kd values for Carbonic anhydrase 2 (Homo sapiens) compiled from several publications are listed below.
Give bare numbers, in µM.

The examples below pair each entry with its known result.
>>> recorded_number("CCN[C@H]1CN(CCCCOC)S(=O)(=O)c2sc(S(N)(=O)=O)cc21")
0.00013
>>> recorded_number("OC[C@H]1O[C@@](CO)(O[C@H]2O[C@H](CO)[C@@H](O)[C@H](O)[C@H]2O)[C@@H](O)[C@@H]1O")
450000
>>> recorded_number("CCCCCCCCNC(=O)c1ccc(S(N)(=O)=O)cc1")
0.0025
>>> recorded_number("NS(=O)(=O)c1ccc(C(=O)NCc2ccncc2)cc1")
0.0014
>>> recorded_number("O=C(N1CCCCCC1)N1CCNCC1")
1400

We now examine a further compound.
Task item: Can you look up the measured Kd of "NS(=O)(=O)c1ccc(C(=O)NC(=O)c2ccco2)cc1" for me?
Reply: 0.0056
